- EXPERIMENT_DESCRIPTION: chemical genetic growth profiling, strain panel (AID 1159580);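 note: tested at 20 µM; growth read once vehicle control cultures reached saturation at 30 °C; 1 = growth at the plate median or of vehicle wells; lower values mean less growth of the strain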
- CONDITIONS: S. cerevisiae deletion strains, growth OD, locus YMR205C, strain PFK2 (second series), stronger effect = lower value
In all, about 5,500 compounds went through this assay and about 2,000 (36%) were called active. Inconclusive results (about 18%) are left out. This is one part of the list.
normalized growth: recorded values
READOUT: normalized growth

In [3]: df
Out[3]:
                                    compound  test_result
 0                          CN(C)c1nc(=S)ss1        0.229
 1             CSC(SC)=C(C#N)C(=O)c1ccccc1Cl        0.179
 2  Cc1c(NCN2C(=O)CCC2=O)cc2c(c1[N+](=O)[O-])C(C)(C)CC2(C)C        0.927
 3  O=S(=O)(Nc1ccc(-n2nc(C(F)(F)F)cc2-c2cccs2)cc1)c1ccc(F)cc1        0.995
 4  CSc1nc(Sc2n[nH]c(-c3ccccc3)n2)cc(Sc2n[nH]c(-c3ccccc3)n2)n1         1.02
 5           Cc1ccc(C(=O)Nc2ccc3ccccc3n2)cc1        0.941
 6     Nc1ccccc1C(=O)N/N=C\c1cc(Cl)cc(Cl)c1O        0.527
 7  COC(=O)c1ccc(Oc2c(C(F)(F)F)oc3cc(O)ccc3c2=O)cc1        0.969
 8  CC1CCc2c(sc3ncnc(Sc4ccccc4)c23)C1 (configuration not stated)         0.95
 9                 COc1cc(OC)cc(/C(N)=N\O)c1        0.963
10   Fc1ccc(Nc2nc(-c3ccc(F)c(F)c3)cs2)c(F)c1       0.0941
11  COc1ccc(-c2cc(NS(=O)(=O)c3cccc(F)c3)n(-c3ccc(Cl)c(Cl)c3)n2)cc1        0.937
12    O=C1CSC(=Nc2cc(Cl)cc(Cl)c2)N1Cc1cccnc1        0.938
13  CC(C)(C)c1cc(C(=O)/C(C#N)=N\Nc2ccc(Cl)cc2)no1        0.137
14                N#Cc1c(N)sc2c1CCc1ccccc1-2         0.69
15  O=C(NCc1ccc(F)c(Cl)c1)Nc1csc([N+](=O)[O-])c1        0.962
16  O=C(N/N=C\c1cc(Cl)cc(Cl)c1O)c1ccccc1Oc1ccccc1        0.913
17      CCCCCc1ccc(-c2nc(SCC(C)=O)n[nH]2)cc1        0.864
18             N#C/C(=N/Nc1ccc(Cl)cc1)C(N)=S        0.236
19    N#C/C(=C\C=C\c1ccccc1)c1nc2ccccc2[nH]1        0.901
20   O=C(Nc1ccc(Cl)cc1)c1csc([N+](=O)[O-])c1        0.862
21  O=C(Nc1ccc(OC(F)(F)F)cc1)Nc1cncc(C(F)(F)F)c1        0.927

----------
- EXPERIMENT_DESCRIPTION: chemical genetic growth profiling, strain panel (AID 1159580);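 note: tested at 20 µM; growth read once vehicle control cultures reached saturation at 30 °C; 1 = growth at the plate median or of vehicle wells; lower values mean less growth of the strain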
- CONDITIONS: S. cerevisiae deletion strains, growth OD, locus YOL012C, strain htz1
The whole screen tested about 5,500 compounds, of which about 2,000 (36%) were called active. Another 18% or so got no clear call; they are omitted. Some of the results follow.
READOUT: normalized growth

In [3]: df
Out[3]:
                               input_smiles            readout  test_result
0  Nc1ncnc2c1ncn2[C@@H]1O[C@H](CO)[C@@H](O)[C@@H]1O  normalized growth          1.2
1   COc1cc(OC)c(-c2c(OC)cc(OC)cc2OC)c(OC)c1  normalized growth        0.971
2            Cn1c([N+](=O)[O-])cnc1COC(N)=O  normalized growth        0.743
3  Cc1c(N(C)CS(=O)(=O)O)c(=O)n(-c2ccccc2)n1C  normalized growth        0.803
4     CCCCCN=C(N)N/N=C\c1c[nH]c2ccc(OC)cc12  normalized growth         1.66
5          CC(C)=CCC1=C(O)c2ccccc2C(=O)C1=O  normalized growth         1.37
